run description: folding enthalpy; higher = less favourable; fluorescence melt of hairpins on a sequencing array, two-state fit
recorded conditions: sodium 0.088 M
Assignment: determine reported folding enthalpy for the given sequences.
Write the figure, then the unit, nothing else.

Return reported folding enthalpy. Input sequence: GCAGGATCGAAAGATTGC (((..(((....))))))
-19.8 kcal/mol

Return reported folding enthalpy. Input sequence: ATCCCGAAAGGGAT (((((....)))))
-29.1 kcal/mol

Return reported folding enthalpy. Input sequence: GATCATTAATATGATC ((((((....))))))
-37.1 kcal/mol

Return reported folding enthalpy. Input sequence: GATCAACGCGTTGATC ((((((....))))))
-54.2 kcal/mol

Return reported folding enthalpy. Input sequence: GAAGACGGAAACGTCCTC ((.((((....)))).))
-11.9 kcal/mol

Return reported folding enthalpy. Input sequence: GTCTTACCGAAAGGTGAC (((..(((....))))))
-13.9 kcal/mol

* * *

run description: folding enthalpy; higher = less favourable; fluorescence melt of hairpins on a sequencing array, two-state fit
recorded conditions: sodium 0.088 M
quantity kind: folding enthalpy
Write the figure, then the unit, nothing else.

Return reported folding enthalpy. Input sequence: GAACTAGGAAACTGGTTC ((((.((....)).))))
-29 kcal/mol

Return reported folding enthalpy. Input sequence: GTGGTACCGAAAGGTCAC (((..(((....))))))
-18.4 kcal/mol

Return reported folding enthalpy. Input sequence: GTAGGCGAAAGCCAATAC ((((((....)))..)))
-9.29 kcal/mol

Return reported folding enthalpy. Input sequence: GCAAACGAAAGTTTTTGC ((((((....)))..)))
-16.1 kcal/mol

Return reported folding enthalpy. Input sequence: GATCGTGGCACGATC ((((((...))))))
-45.8 kcal/mol

Return reported folding enthalpy. Input sequence: GTTCATGGAAACATGAAC (((((((....)))))))
-49.9 kcal/mol

Return reported folding enthalpy. Input sequence: GTAGCGGGAAACTGCTGC (.(((.(....).))).)
-22.6 kcal/mol

Return reported folding enthalpy. Input sequence: GCTGGGGAAACCCAGC ((((((....))))))
-37.5 kcal/mol

Return reported folding enthalpy. Input sequence: GTCCTCGAAAGAGGGGAC ((((((....)))..)))
-11.6 kcal/mol

Return reported folding enthalpy. Input sequence: GCTCATGGAAACATGGGC ((.((((....)))).))
-34.2 kcal/mol

Return reported folding enthalpy. Input sequence: GCCTGGCGAAAGCTTGGC (((..((....))..)))
-26.5 kcal/mol

Return reported folding enthalpy. Input sequence: GACAACGAAAGTTTTGTC ((((((....)))..)))
-24.7 kcal/mol

Return reported folding enthalpy. Input sequence: GCGCTGCGAAAGCAACGC (((.(((....))).)))
-49 kcal/mol

Return reported folding enthalpy. Input sequence: GATCGGACTCCCGATC ((((((....))))))
-35.3 kcal/mol

Return reported folding enthalpy. Input sequence: GATCATTCTTATGATC ((((((....))))))
-40.9 kcal/mol

Return reported folding enthalpy. Input sequence: GCATTGCGAAAGCACAGC ((..(((....)))..))
-15.2 kcal/mol

Return reported folding enthalpy. Input sequence: GATGGAGGAAACTCTATC (((.(((....))).)))
-24.4 kcal/mol

Return reported folding enthalpy. Input sequence: GTGAACCGAAAGGTCAC (((.(((....))))))
-27.2 kcal/mol

Return reported folding enthalpy. Input sequence: GATCGGCTTTCCGATC ((((((....))))))
-37 kcal/mol

Return reported folding enthalpy. Input sequence: GCACACGAAAGTGGGTGC ((((((....)))..)))
-24.1 kcal/mol

Return reported folding enthalpy. Input sequence: CGGGCGGAAACGCACCCG ((((((....)))..)))
-13.1 kcal/mol

Return reported folding enthalpy. Input sequence: GGTTGGAAACAACC (((((....)))))
-29.6 kcal/mol

Return reported folding enthalpy. Input sequence: GATCCCACGTGGGATC ((((((....))))))
-45.1 kcal/mol

Return reported folding enthalpy. Input sequence: GCGCATGCGAAAGCACGC (((..(((....))))))
-13.7 kcal/mol

Return reported folding enthalpy. Input sequence: GGTTTCGAAAGAATCACC ((((((....)))..)))
-13 kcal/mol

* * *

run description: melting temperature; fluorescence melt of hairpins on a sequencing array, two-state fit, raised by 9.35 °C to match UV melts
recorded conditions: sodium 0.088 M
Rule: Tm below 40 °C gives Y. Equal to or above 40 °C gives N.

Strictly below 40 °C in Tm? GTTCACGAAAGTGCGAAC ((((((....)))..)))
Y

Strictly below 40 °C in Tm? GTCCTTCCGAAAGGAGAC (((..(((....))))))
Y

Strictly below 40 °C in Tm? GCAATGCGAAAGCATCGC ((.((((....)))).))
N

Strictly below 40 °C in Tm? GGTTGCGGAAACGTAACC ((((.((....)).))))
N

Strictly below 40 °C in Tm? GGGTATACGAAAGTACCC (((..(((....))))))
N

Strictly below 40 °C in Tm? GGACTCGAAAGAGCTCC ((((((....))).)))
N

Strictly below 40 °C in Tm? GTGAGGGGAAACTCTCGC (.(((.(....).))).)
Y

Strictly below 40 °C in Tm? GCGACCGGAAACGGTTGC ((.((((....)))).))
N

Strictly below 40 °C in Tm? GAACCGCGAAAGCGCTTC (((.(((....))).)))
Y

Strictly below 40 °C in Tm? GTTTGGGGAAACTCAAGC (.(((.(....).))).)
Y

Strictly below 40 °C in Tm? GACCCGCGAAAGCGTGTC (((.(((....))).)))
N

* * *

run description: melting temperature; fluorescence melt of hairpins on a sequencing array, two-state fit, raised by 9.35 °C to match UV melts
recorded conditions: sodium 0.088 M
Rule: Tm below 50 °C gives Y. Equal to or above 50 °C gives N.

Strictly below 50 °C in Tm? GATCAGGTTTCTGATC ((((((....))))))
N

Strictly below 50 °C in Tm? GATCCGACGAAAGTCATC (((..(((....))))))
Y

Strictly below 50 °C in Tm? GACGGGCGAAAGCCAGTC (((.(((....))).)))
N

Strictly below 50 °C in Tm? GGCGAGCGAAAGCTGCC (((.(((....))))))
N

Strictly below 50 °C in Tm? GATCTCTGGAGAGATC ((((((....))))))
N

Strictly below 50 °C in Tm? GCGTATCAACGC ((((....))))
N

* * *

run description: melting temperature; fluorescence melt of hairpins on a sequencing array, two-state fit, raised by 9.35 °C to match UV melts
recorded conditions: sodium 0.088 M
Rule: Tm below 50 °C gives yes (1). Equal to or above 50 °C gives no (0).

Strictly below 50 °C in Tm? GGCCTGACGAAAGTCGCC (((..(((....))))))
yes (1)

Strictly below 50 °C in Tm? GATCCCTTGTGGGATC ((((((....))))))
no (0)

Strictly below 50 °C in Tm? GTCCGCGAAAGCGGCGAC ((((((....)))..)))
no (0)

Strictly below 50 °C in Tm? GACAAACGAAAGTTAGTC (((.(((....))).)))
yes (1)

Strictly below 50 °C in Tm? GCGAACGAAAGTTGCGC ((((((....))).)))
no (0)

Strictly below 50 °C in Tm? GTCTTCGAAAGAAAGGAC ((((((....)))..)))
yes (1)

Strictly below 50 °C in Tm? GTAGCTGGAAACAGCCAC ((.((((....)))).))
yes (1)

Strictly below 50 °C in Tm? GCGCTGCGAAAGCAAAGC ((..(((....)))..))
no (0)

Strictly below 50 °C in Tm? GTGGGCGGAAACACCCAC (((((.(....).)))))
no (0)

Strictly below 50 °C in Tm? GAACGAGGAAACTCGTTC (((((((....)))))))
no (0)

Strictly below 50 °C in Tm? GATCACCATGGTGATC ((((((....))))))
no (0)

* * *

run description: folding enthalpy; higher = less favourable; fluorescence melt of hairpins on a sequencing array, two-state fit
recorded conditions: sodium 0.088 M
quantity kind: folding enthalpy (kcal/mol)
Numbers only here, please. The scale is kcal/mol.

Return reported folding enthalpy. Input sequence: GATGACGGAAACATCATC (((((.(....).)))))
-31.2

Return reported folding enthalpy. Input sequence: GGCTCAGGAAACTGGGTC (.(.(((....))).).)
-25.9

Return reported folding enthalpy. Input sequence: GATCGACCTTTCGATC ((((((....))))))
-42.9

Return reported folding enthalpy. Input sequence: GCACGTGGAAACACGCAC (..((((....))))..)
-9.68

Return reported folding enthalpy. Input sequence: GGGCAAACGAAAGTTCCC (((..(((....))))))
-19.5

Return reported folding enthalpy. Input sequence: GCGGATCCGAAAGGACGC (((..(((....))))))
-25.6

Return reported folding enthalpy. Input sequence: GCTCTGTCGAAAGACAGC (((..(((....))))))
-8.62

Return reported folding enthalpy. Input sequence: GATCGGATTCCCGATC ((((((....))))))
-36

Return reported folding enthalpy. Input sequence: CGGCGCGGAAACGCTCCG (((.(((....))).)))
-33.7

Return reported folding enthalpy. Input sequence: GATCCAGGAAACTGGGTC ((.((((....)))).))
-29.9

Return reported folding enthalpy. Input sequence: GTCCAGGGAAACCCGGAC ((((.((....)).))))
-36.1

Return reported folding enthalpy. Input sequence: GGGATCGAAAGATAGCCC ((((((....)))..)))
-17.3
